Molecular target: norepinephrine transporter (NET) (Homo sapiens)
Sequence (P23975 whole entry, species assumed): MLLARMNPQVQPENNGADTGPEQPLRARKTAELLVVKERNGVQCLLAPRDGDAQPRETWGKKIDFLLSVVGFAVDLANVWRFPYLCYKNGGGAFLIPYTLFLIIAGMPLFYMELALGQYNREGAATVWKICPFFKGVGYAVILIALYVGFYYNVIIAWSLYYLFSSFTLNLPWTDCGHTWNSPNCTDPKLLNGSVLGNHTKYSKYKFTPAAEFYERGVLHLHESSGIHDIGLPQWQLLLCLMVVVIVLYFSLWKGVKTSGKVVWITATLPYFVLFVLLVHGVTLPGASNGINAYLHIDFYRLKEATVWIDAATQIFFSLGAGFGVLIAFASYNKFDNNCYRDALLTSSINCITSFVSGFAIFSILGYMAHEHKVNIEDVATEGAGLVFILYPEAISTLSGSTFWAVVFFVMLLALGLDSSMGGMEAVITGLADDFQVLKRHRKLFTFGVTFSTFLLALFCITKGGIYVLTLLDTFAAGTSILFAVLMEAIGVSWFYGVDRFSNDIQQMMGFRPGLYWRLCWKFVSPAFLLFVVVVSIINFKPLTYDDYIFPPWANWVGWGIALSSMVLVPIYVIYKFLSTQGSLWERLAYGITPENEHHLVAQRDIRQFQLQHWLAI
Experiment: Norepinephrine reuptake inhibition, [3H]-NE, cells transfected with NE transporter cDNA
Settings: compound 1 μM; relative to control without compound (100%); lower value = stronger inhibition

- SMI: "Clc1cccc(CC2CCN(Cc3nnc(-c4cc5ccccc5[nH]4)[nH]3)CC2)c1"
  TARGET_ENTITY: "norepinephrine transporter (NET) (Homo sapiens)"
  Triple reuptake inhibition (Ratio %) NET: 66.48
- SMI: "COc1ccc2c(-c3nnc(CN4CCC(Cc5ccc(Cl)c(Cl)c5)CC4)[nH]3)c[nH]c2c1"
  TARGET_ENTITY: "norepinephrine transporter (NET) (Homo sapiens)"
  Triple reuptake inhibition (Ratio %) NET: 77.82
- SMI: "c1ccc(CC2CCN(Cc3nnc(-c4cc5ccccc5[nH]4)o3)CC2)cc1"
  TARGET_ENTITY: "norepinephrine transporter (NET) (Homo sapiens)"
  Triple reuptake inhibition (Ratio %) NET: 145.38
- SMI: "NC(=O)c1ccc2[nH]c(-c3nnc(CN4CCC(Cc5ccccc5)CC4)[nH]3)cc2c1"
  TARGET_ENTITY: "norepinephrine transporter (NET) (Homo sapiens)"
  Triple reuptake inhibition (Ratio %) NET: 37.21
